# Tested on: Plasmodium falciparum
# MEASUREMENT_DESCRIPTION: GSK_TCMDC: Inhibition of Plasmodium falciparum Dd2 in whole red blood cells, using parasite LDH activity as an index of growth. Test compounds present at 2uM
# Assay type: functional
Lab note: cut-off is 20%. Strictly less in Inhibition is y. Exactly 20% or more is n.

[
  {
    "MOLECULE": "CN(C)c1nc2cc(-n3cnc4cc(-c5ccc(Cl)cc5)sc4c3=O)ccc2n1CCCN1CCCCC1.O=C(O)C(F)(F)F",
    "MEASURED_TARGET": "Plasmodium falciparum",
    "DISCRETE_LABEL": "n"
  },
  {
    "MOLECULE": "COc1ccc2nccc(N3CCC(CCNCc4cc5c(cn4)OCCO5)CC3)c2c1.Cl",
    "MEASURED_TARGET": "Plasmodium falciparum",
    "DISCRETE_LABEL": "n"
  },
  {
    "MOLECULE": "COc1ccccc1-c1ccc(CNC(=O)C(CN2CCN(C)CC2)c2ccccc2)cc1 (stereo not given)",
    "MEASURED_TARGET": "Plasmodium falciparum",
    "DISCRETE_LABEL": "y"
  },
  {
    "MOLECULE": "COc1c(C2CCN(CCCCNC(=O)c3cccc(-c4ccc(C(F)(F)F)cc4)c3)CC2)ccc2c1CCCC2",
    "MEASURED_TARGET": "Plasmodium falciparum",
    "DISCRETE_LABEL": "n"
  },
  {
    "MOLECULE": "N=C(N)NN=CC(=O)Nc1cc([N+](=O)[O-])cc([N+](=O)[O-])c1.O=S(=O)(O)O",
    "MEASURED_TARGET": "Plasmodium falciparum",
    "DISCRETE_LABEL": "y"
  }
]

###

# System: Plasmodium falciparum
# MEASUREMENT_DESCRIPTION: GSK_TCMDC: Inhibition of Plasmodium falciparum Dd2 in whole red blood cells, using parasite LDH activity as an index of growth. Test compounds present at 2uM
# Assay type: functional
Binning of Inhibition into classes: I: < 30%; II: ≥ 30% and < 80%; III: ≥ 80%

[
  {
    "MOLECULE": "Cc1ccc(Nc2nc3cc(N(C)c4ccnc(Nc5cccc(CS(C)(=O)=O)c5)n4)ccc3o2)cc1.O=C(O)C(F)(F)F",
    "DISCRETE_LABEL": "I"
  },
  {
    "MOLECULE": "O=C(N[C@H]1CCN(CCc2ccc(O[C@H]3CCNC3)cc2)C1)c1ccc(Cl)c(Cl)c1.O=C(O)C(F)(F)F",
    "DISCRETE_LABEL": "I"
  },
  {
    "MOLECULE": "Nc1ccc(-c2ccc3ccnc(N)c3c2)cn1.O=C(O)C(F)(F)F",
    "DISCRETE_LABEL": "III"
  },
  {
    "MOLECULE": "O=C(Nc1ccc(Cl)cc1)Nc1cccc(-c2cccc(-c3nc4cc(F)ccc4[nH]3)c2)c1",
    "DISCRETE_LABEL": "III"
  },
  {
    "MOLECULE": "CCCc1ccc(Nc2nc(C)cc(N(CC)CCCN3CCCCC3)n2)cc1.O=C(O)C(F)(F)F",
    "DISCRETE_LABEL": "III"
  },
  {
    "MOLECULE": "COc1ccc2nccc(N3CCC(NCCNCc4ccc5c(n4)NC(=O)CO5)C3)c2n1.Cl (centres undefined)",
    "DISCRETE_LABEL": "II"
  },
  {
    "MOLECULE": "FC(F)(F)c1ccc2[nH]c(-c3ccc(-c4cccc(CN5CCC(CCN6CCCCC6)CC5)c4)cc3)nc2c1.O=C(O)C(F)(F)F",
    "DISCRETE_LABEL": "III"
  },
  {
    "MOLECULE": "CCc1cc2c(Sc3nc4ccccc4[nH]3)ncnc2s1",
    "DISCRETE_LABEL": "III"
  },
  {
    "MOLECULE": "O=C(Nc1n[nH]c2nc(-c3ccco3)c(Br)cc12)c1ccc(CN2CCCC2)cc1.O=C(O)C(O)C(O)C(=O)O",
    "DISCRETE_LABEL": "II"
  },
  {
    "MOLECULE": "COc1ccc(CN2CCCN(Cc3cccc(NC(=O)c4cc5ccccc5s4)c3)CC2)cc1.O=C(O)C(F)(F)F",
    "DISCRETE_LABEL": "II"
  },
  {
    "MOLECULE": "COc1ccc2c(c1)nc(CNC(=N)N)n2Cc1ccc(Cl)cc1.Cl",
    "DISCRETE_LABEL": "III"
  },
  {
    "MOLECULE": "COc1ccc2nccc([C@@H](O)CN3CCC(NCc4cnc5c(c4)NC(=O)CS5)CC3)c2c1.O=C(O)C(=O)O",
    "DISCRETE_LABEL": "I"
  },
  {
    "MOLECULE": "Cc1nc(C)c(-c2ccc(-c3ccc(F)cc3)cc2)c(O)c1Br",
    "DISCRETE_LABEL": "II"
  },
  {
    "MOLECULE": "CC(CN1CCN(C)CC1)C(=O)Nc1ccc(-c2csc(-c3nc4ccccc4[nH]3)c2)cc1 (centres undefined)",
    "DISCRETE_LABEL": "I"
  },
  {
    "MOLECULE": "COc1cc(NC(=O)/C=C/c2cc3ccccc3n2C)ccc1OCCN(C(C)C)C(C)C.Cl",
    "DISCRETE_LABEL": "II"
  },
  {
    "MOLECULE": "COc1ccc2nccc(N/N=C/c3ccc([N+](=O)[O-])cc3)c2c1",
    "DISCRETE_LABEL": "II"
  },
  {
    "MOLECULE": "CN(CCCCCN1CCC(NC(=O)Nc2ccc(C(F)(F)F)cc2)C1)C(=O)/C=C/c1ccc(Cl)c(Cl)c1 (centres undefined)",
    "DISCRETE_LABEL": "I"
  },
  {
    "MOLECULE": "Cc1cc(-c2ccc3c(c2)CC[C@@H](N[C@@H](C)c2ccccc2)C3)cnc1N.Cl",
    "DISCRETE_LABEL": "I"
  }
]

###

# Tested on: Plasmodium falciparum
# MEASUREMENT_DESCRIPTION: GSK_TCMDC: Inhibition of Plasmodium falciparum 3D7 in whole red blood cells, using parasite LDH activity as an index of growth. Test compounds present at 2uM
# Assay type: functional
Lab note: cut-off is 90%. Strictly less in Inhibition is Condition met. Exactly 90% or more is Condition not met.

[
  {
    "GIVEN_SMILES": "Cc1ccc(NC(=N)Nc2ncccc2OCc2c(F)cccc2Cl)cc1",
    "DISCRETE_LABEL": "Condition met"
  },
  {
    "GIVEN_SMILES": "CC(C)c1cc2c(ccc3nc(N)nc(N)c32)[nH]1",
    "DISCRETE_LABEL": "Condition not met"
  },
  {
    "GIVEN_SMILES": "CCCCc1ccc(-c2c(N)nc(N)nc2CC)cc1",
    "DISCRETE_LABEL": "Condition not met"
  },
  {
    "GIVEN_SMILES": "CCn1c(-c2nc(-c3ccnc(N4CCN(C)CC4)c3)cnc2N)nc2cc(S(C)(=O)=O)ccc21",
    "DISCRETE_LABEL": "Condition not met"
  }
]

###

# System: Plasmodium falciparum
# MEASUREMENT_DESCRIPTION: GSK_TCMDC: Inhibition of Plasmodium falciparum Dd2 in whole red blood cells, using parasite LDH activity as an index of growth. Test compounds present at 2uM
# Type: functional

[
  {
    "COMPOUND": "Br.CCCc1cc(C(C)=O)ccc1OCCCON1C(=N)N=C(N)NC1(C)C",
    "Inhibition": "96%"
  },
  {
    "COMPOUND": "COc1ccc2nc(NC(N)=NC(=O)Nc3ccccc3)nc(C)c2c1",
    "Inhibition": "15%"
  },
  {
    "COMPOUND": "O=C(NCC1CN(Cc2ccc(N3CCCC3)o2)CCCO1)c1ccc2c(c1)OCO2.O=CO (stereo unspecified)",
    "Inhibition": "70%"
  },
  {
    "COMPOUND": "CCC(NC[C@@H](O)[C@H](Cc1ccccc1)NC(=O)c1cc(C2CCCC2)cc(N2CCCC2=O)c1)c1cccc(Cl)c1.Cl (stereo partly specified)",
    "Inhibition": "97%"
  },
  {
    "COMPOUND": "COc1ccc(C2=CCN(c3ccc(Cl)c(Cl)c3)C2=O)cc1OCCN1CCCCC1.Cl",
    "Inhibition": "99%"
  },
  {
    "COMPOUND": "Cn1nccc1C(=O)NCCNCc1ccc(-c2cccc(-c3nc4ccccc4[nH]3)c2)cc1.O=C(O)C(F)(F)F",
    "Inhibition": "87%"
  }
]
